Biological target: NKCC1 (Homo sapiens)
Construct: endogenous in cells
Sequence (P55011 whole entry): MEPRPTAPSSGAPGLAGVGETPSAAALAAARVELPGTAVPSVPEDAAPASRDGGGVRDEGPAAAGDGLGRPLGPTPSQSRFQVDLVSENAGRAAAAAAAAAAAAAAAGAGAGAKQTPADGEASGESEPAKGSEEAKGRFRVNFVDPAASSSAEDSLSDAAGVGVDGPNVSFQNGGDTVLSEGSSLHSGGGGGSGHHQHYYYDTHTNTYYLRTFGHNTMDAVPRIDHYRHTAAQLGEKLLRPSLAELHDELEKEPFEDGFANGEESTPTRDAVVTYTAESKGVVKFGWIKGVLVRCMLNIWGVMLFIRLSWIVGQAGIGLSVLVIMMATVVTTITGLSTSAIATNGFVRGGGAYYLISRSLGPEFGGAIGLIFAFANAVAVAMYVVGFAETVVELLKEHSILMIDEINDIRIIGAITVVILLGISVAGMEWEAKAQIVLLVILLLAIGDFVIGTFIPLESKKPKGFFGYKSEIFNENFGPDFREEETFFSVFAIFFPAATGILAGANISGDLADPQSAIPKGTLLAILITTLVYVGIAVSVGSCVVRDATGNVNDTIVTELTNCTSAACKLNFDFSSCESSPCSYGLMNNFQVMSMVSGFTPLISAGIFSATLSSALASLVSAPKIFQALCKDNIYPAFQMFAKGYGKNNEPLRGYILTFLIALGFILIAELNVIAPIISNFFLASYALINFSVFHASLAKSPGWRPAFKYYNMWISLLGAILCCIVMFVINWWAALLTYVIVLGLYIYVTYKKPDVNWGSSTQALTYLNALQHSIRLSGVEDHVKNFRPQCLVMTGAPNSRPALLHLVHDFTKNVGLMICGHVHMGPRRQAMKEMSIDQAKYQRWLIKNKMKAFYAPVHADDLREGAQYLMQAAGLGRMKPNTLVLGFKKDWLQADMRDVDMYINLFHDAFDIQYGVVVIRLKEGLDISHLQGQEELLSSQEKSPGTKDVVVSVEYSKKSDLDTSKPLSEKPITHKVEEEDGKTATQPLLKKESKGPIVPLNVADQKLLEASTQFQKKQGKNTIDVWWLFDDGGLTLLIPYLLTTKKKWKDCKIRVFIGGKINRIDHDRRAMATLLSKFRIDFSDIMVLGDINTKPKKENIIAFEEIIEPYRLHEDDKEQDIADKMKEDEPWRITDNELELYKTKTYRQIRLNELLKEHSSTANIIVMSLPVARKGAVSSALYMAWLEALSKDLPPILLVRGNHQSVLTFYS
Assay: dose response on NKCC1-mediated K+ influx (FIG. 1B)
Details: HEK293 cells, dose response curves
Result type: EC50 (nM)
One number for each entry, in nM.

Can you share its EC50? I mean this compound: CCCCNc1cc(C(=O)O)cc(S(N)(=O)=O)c1Oc1ccccc1 [bumetanide] 312
